experimentalSystem: Cytochrome P450 2C9 (Homo sapiens) (UniProt P11712)
Sequence (P11712 whole entry, looked up): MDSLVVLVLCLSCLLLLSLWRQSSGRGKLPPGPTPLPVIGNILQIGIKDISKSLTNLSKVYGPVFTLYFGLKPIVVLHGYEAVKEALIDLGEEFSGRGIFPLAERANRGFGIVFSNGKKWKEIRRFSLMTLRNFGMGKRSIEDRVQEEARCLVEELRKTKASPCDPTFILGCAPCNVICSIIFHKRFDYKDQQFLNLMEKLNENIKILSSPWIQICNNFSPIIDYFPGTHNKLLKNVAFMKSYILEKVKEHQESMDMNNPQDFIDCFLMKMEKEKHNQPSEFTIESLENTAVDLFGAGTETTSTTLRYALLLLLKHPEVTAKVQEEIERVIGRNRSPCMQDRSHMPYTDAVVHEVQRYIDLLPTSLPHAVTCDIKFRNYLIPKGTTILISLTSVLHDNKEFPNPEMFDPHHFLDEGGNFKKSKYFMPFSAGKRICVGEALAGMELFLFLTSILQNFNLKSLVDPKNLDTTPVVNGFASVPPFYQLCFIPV
testSummary: Cytochrome panel assay with activity outcomes; for activity, negative = inhibition: % is set by controls: 0 for no effect and ±100 for the full control effect
testContext: recombinant CYP, pro-luciferin dealkylation, luminescence, p450-cyp2c9; series mostly up to 57.1 µM
In all, about 16,000 compounds went through this assay and about 4,000 (25%) were called active. Not shown: some 26% with an inconclusive outcome. The list is a sample of the results.
readoutType: activity, negative = inhibition

In [3]: df
Out[3]:
                                    molecule                        reported
 0           COc1cccc(-c2nccc(-n3ccnc3)n2)c1  -24.4% [at 2.29 µM] (inactive)
 1  N=C(N)C(N=Nc1ccccc1)C(=N)N (centres undefined)   11.9% [at 11.4 µM] (inactive)
 2  O=C1[C@H]2CCn3c(=O)n(-c4ccccc4)c(=O)n3[C@H]2[C@H](O)[C@H]2O[C@@H]12  -4.73% [at 11.4 µM] (inactive)
 3          N#Cc1cccc(-c2cc(-n3ccnc3)ncn2)c1  -5.24% [at 2.29 µM] (inactive)
 4            Cc1ccccc1-c1cncnc1N(C)Cc1ccco1  -10.8% [at 2.29 µM] (inactive)
 5  O=C1[C@H]2O[C@@H]2[C@@H](O)[C@H]2[C@H]1CCn1c(=O)n(Cc3cc4c(cc3Cl)OCO4)c(=O)n12   3.99% [at 11.4 µM] (inactive)
 6  CO[C@@H]1COC(=O)C/C=C\[C@@H](C)COC(=O)[C@H](COCc2ccccc2)NC(=O)C/C=C\[C@H]1C  -9.13% [at 11.4 µM] (inactive)
 7  CS(=O)(=O)Nc1cccc(-c2ccc3ncnc(N4CCNCC4)c3c2)c1  -12.1% [at 2.29 µM] (inactive)
 8            NC(N)=N/N=C\c1ccc(C2CCNCC2)cc1    2.7% [at 11.4 µM] (inactive)
 9  c1ccc(C[n+]2cccc(-c3cc4ccccc4[nH]3)c2)cc1  -9.64% [at 11.4 µM] (inactive)
10  CC(C)=C[C@H]1[C@@H](COC(=O)c2ccccc2Cl)C1(C)C  -5.63% [at 11.4 µM] (inactive)
11  CC1(C)CC(=O)C(C(c2cccc(O)c2O)C2C(=O)CC(C)(C)CC2=O)C(=O)C1   3.72% [at 11.4 µM] (inactive)
12                  Nc1cc(C(=O)O)[nH]c(=O)n1    7.9% [at 11.4 µM] (inactive)
13   N#Cc1cccc(-c2ccc3ncnc(NC4CCNCC4)c3c2)c1   10.5% [at 2.29 µM] (inactive)
14  CCc1cc2c(nc1CC)CCN(CC/C(C)=N/O[C@@H](C)c1cc(-c3c(C)cc(C)cc3C)no1)C2   8.77% [at 11.4 µM] (inactive)
15          Cc1ccc(N(Cc2ccccc2)Cc2ccccc2)cc1  -16.6% [at 11.4 µM] (inactive)
16                               CC(C)(CN)CN   2.97% [at 11.4 µM] (inactive)
17      CN(Cc1ccco1)c1nc(-c2ccoc2)nc2ccccc12  -3.83% [at 2.29 µM] (inactive)
18  COc1cccc(-c2ccc3ncnc(N4CCN(C)CC4)c3c2)c1  -5.64% [at 2.29 µM] (inactive)
19              Cc1noc(C)c1-c1cc(NC2CC2)ncn1  -1.99% [at 2.29 µM] (inactive)
20                               CN(C)CCSCCO   13.5% [at 11.4 µM] (inactive)
21        O=P(O)(CCP(=O)(O)c1ccccc1)c1ccccc1   2.87% [at 11.4 µM] (inactive)
22             CN(C)c1nc(-c2ccoc2)nc2ccccc12   21.3% [at 2.29 µM] (inactive)
23  CC(C)(C)c1c2c(c(C(C)(C)C)c3c1OCN(Cc1ccccc1)C3)OCN(Cc1ccccc1)C2  -7.82% [at 11.4 µM] (inactive)

###

experimentalSystem: Cytochrome P450 2C9 (Homo sapiens)
testSummary: Cytochrome panel assay with activity outcomes
testContext: recombinant CYP, pro-luciferin dealkylation, luminescence, p450-cyp2c9; series mostly up to 57.1 µM
The whole screen tested about 16,000 compounds, of which about 4,000 (25%) were called active. Not shown: some 26% with an inconclusive outcome. Calls come from the whole dose curve; as a rule, active = well fitted curve in the direction sought with a large enough effect; inconclusive = small, poorly fitted or top-dose-only effect, or effect the other way; inactive = no such curve, though single readings can be large or run the other way. Not all results are given here.
Outcomes: label 1 = active, label 0 = inactive

molecule	experimentalSystem	class
Cc1c(NC(=O)CN2CCN(c3ccccc3)CC2)c(=O)n(-c2ccccc2)n1C	Cytochrome P450 2C9 (Homo sapiens)	label 0
c1ccc2[nH]c(NC3=NCCC3)nc2c1	Cytochrome P450 2C9 (Homo sapiens)	label 0
O=C(NCCc1ccccc1)C(=O)NN=C1CCCC1	Cytochrome P450 2C9 (Homo sapiens)	label 0
CC(=O)OC1CCC(OC(C)=O)c2c1n([O-])c(C)c(C)[n+]2=O (centres undefined)	Cytochrome P450 2C9 (Homo sapiens)	label 0
N#Cc1ccc(-c2ccc(F)cc2)nc1Oc1ccc(Cl)c(Cl)c1	Cytochrome P450 2C9 (Homo sapiens)	label 0
CC(=O)NC1=NC(=O)C(C)S1 (centres undefined)	Cytochrome P450 2C9 (Homo sapiens)	label 0
N=c1nc(N2CCCCC2)cc(N)n1O	Cytochrome P450 2C9 (Homo sapiens)	label 0
Cc1c(Cl)cccc1NC(=O)CN1CCC(C(O)(c2ccccc2)c2ccccc2)CC1	Cytochrome P450 2C9 (Homo sapiens)	label 1
CCOC(=O)CSc1cc(CS(=O)c2ccc(Cl)cc2)nc(-c2ccccc2)n1 (centres undefined)	Cytochrome P450 2C9 (Homo sapiens)	label 1
NCCCCC(=O)O	Cytochrome P450 2C9 (Homo sapiens)	label 0
CCN1/C(=C/c2ccc3cccc(C)c3[n+]2CC)Sc2ccccc21	Cytochrome P450 2C9 (Homo sapiens)	label 0
Clc1cccc(N/N=C/c2ccc(N3CCOCC3)cc2)c1	Cytochrome P450 2C9 (Homo sapiens)	label 0
O=C1Nc2ccccc2/C1=N/c1sc2c(c1C(=O)NCCc1ccccc1)CCCC2	Cytochrome P450 2C9 (Homo sapiens)	label 1
COc1cc(/C=N\Nc2nc3ccccc3[nH]2)cc(OC)c1OC	Cytochrome P450 2C9 (Homo sapiens)	label 1
CC(=O)c1cccc(NC(=O)/C(=C\c2ccco2)NC(=O)c2cccs2)c1	Cytochrome P450 2C9 (Homo sapiens)	label 1
C[C@H]1[C@@H](O)[C@@H](C)\C=C/C=C\C=C/C=C\C=C/C=C\C=C/[C@@H](O[C@H]2O[C@@H](C)[C@@H](O)[C@@H](N)[C@@H]2O)C[C@@H]2O[C@](O)(C[C@@H](O)C[C@@H](O)[C@@H](O)CC[C@@H](O)C[C@@H](O)CC(=O)O[C@H]1C)C[C@@H](O)[C@H]2C(=O)O (stereo in doubt)	Cytochrome P450 2C9 (Homo sapiens)	label 0
Cc1ccc(S(=O)(=O)CC#CCOC(=O)c2ccc([N+](=O)[O-])cc2)cc1	Cytochrome P450 2C9 (Homo sapiens)	label 1
O=C(CC1C(=O)N(c2ccc(Cl)cc2)C(=S)N1CCc1ccncc1)Nc1ccc(F)cc1 (centres undefined)	Cytochrome P450 2C9 (Homo sapiens)	label 1
Cn1c(=O)n(C)c2cc(/C=N/n3cnnc3)ccc21	Cytochrome P450 2C9 (Homo sapiens)	label 1
O[C@@](CCN1CCCCC1)(c1ccccc1)C1CCCCC1	Cytochrome P450 2C9 (Homo sapiens)	label 0
COCCCNC(=O)c1c(N)n(/N=C/c2ccccn2)c2nc3ccccc3nc12	Cytochrome P450 2C9 (Homo sapiens)	label 1
Fc1ccc(-c2cn3cc(C(F)(F)F)cc(Cl)c3n2)cc1	Cytochrome P450 2C9 (Homo sapiens)	label 1
Cc1ccc(C(=O)c2c[nH]c(C(=O)NCCCN3CCOCC3)c2)cc1	Cytochrome P450 2C9 (Homo sapiens)	label 0
O=C(O)c1ccc2c(c1)C(=O)N(C(Cc1ccc(O)cc1)C(=O)O)C2=O (centres undefined)	Cytochrome P450 2C9 (Homo sapiens)	label 0
Cc1ccccc1-n1ncc2c(SCC(=O)N3c4ccccc4CC3C)ncnc21 (centres undefined)	Cytochrome P450 2C9 (Homo sapiens)	label 1
Cc1c(OC(=O)c2ccc([N+](=O)[O-])cc2)c2c(c[n+]1C)COC(C)(C)OC2	Cytochrome P450 2C9 (Homo sapiens)	label 0
COC(=O)Nc1nc2ccc(Sc3ccccc3)cc2[nH]1	Cytochrome P450 2C9 (Homo sapiens)	label 0
COc1ccc2cc(C)c3nnc(SCC(=O)Nc4nc(-c5ccccc5)cs4)n3c2c1	Cytochrome P450 2C9 (Homo sapiens)	label 1
C=CCNC(=O)c1cccn1-c1ccsc1C(=O)OC	Cytochrome P450 2C9 (Homo sapiens)	label 0
O=C(c1cc2sccc2n1Cc1ccccc1)N1CCN(c2nc3ccccc3s2)CC1	Cytochrome P450 2C9 (Homo sapiens)	label 1
CCC(C)C1NC(=S)N(C2CCCCC2)C1=O (centres undefined)	Cytochrome P450 2C9 (Homo sapiens)	label 1
O=C(NCCCN1CCCC1=O)c1ccc(CNS(=O)(=O)c2ccc(F)cc2)cc1	Cytochrome P450 2C9 (Homo sapiens)	label 0
O=C(NCCCN1CCOCC1)c1cc(C(=O)C2CC2)c[nH]1	Cytochrome P450 2C9 (Homo sapiens)	label 0
CC[N+](CC)(CC)CC	Cytochrome P450 2C9 (Homo sapiens)	label 0
Cc1ccc(-c2csc(N3CCC(NS(=O)(=O)c4ccc5c(c4)OCCO5)CC3)n2)cc1	Cytochrome P450 2C9 (Homo sapiens)	label 1
NCCS	Cytochrome P450 2C9 (Homo sapiens)	label 0
Cc1[nH]c2ccccc2c1/C=C/c1cc[n+](C)cc1	Cytochrome P450 2C9 (Homo sapiens)	label 0
COC(=O)C(Cc1ccc(OC(=O)c2ccc(Cl)cc2)cc1)N1Cc2ccccc2C1=O (centres undefined)	Cytochrome P450 2C9 (Homo sapiens)	label 1
N#CC1=C(N)OC2=C(CC/C2=C\c2ccccc2)C1c1ccccc1 (centres undefined)	Cytochrome P450 2C9 (Homo sapiens)	label 1
COC(=O)[C@H](N)Cc1ccc(Cl)cc1	Cytochrome P450 2C9 (Homo sapiens)	label 0
CCCCn1cnc2c(cnn2-c2ccc(F)cc2)c1=O	Cytochrome P450 2C9 (Homo sapiens)	label 1
CSc1nncn1/N=C/c1ccc2c(c1)OCO2	Cytochrome P450 2C9 (Homo sapiens)	label 0
Cc1ccc(S(=O)(=O)N(CCCN2CCCC2=O)Cc2cc3c(C)ccc(C)c3[nH]c2=O)cc1	Cytochrome P450 2C9 (Homo sapiens)	label 1
CC(C)Cn1c(C(C)C)nc([N+](=O)[O-])c1S(=O)(=O)c1ccc(F)cc1	Cytochrome P450 2C9 (Homo sapiens)	label 0
